System: GST-tagged Cn
Assay: PEPperPRINT peptide microarray binding assay with GST-tagged Cn
Conditions: GST-tagged Cn, max over the spots named in Location on chip

{"Chain sequence": "GGPGTPGRPGIHSAPS [SeqRBM_5424]", "Chip Fluorescence (max)": 1.6472}
{"Chain sequence": "NIIKTLTAVARYCQHF [Seqrandom_9968]", "Chip Fluorescence (max)": 1.398}
{"Chain sequence": "PGLYDNALGIESFTLS [SeqRBMlowT_2801]", "Chip Fluorescence (max)": 1.445}
{"Chain sequence": "PALESPRIEITSCLGL [SeqNFATC1_Homo_sapiens]", "Chip Fluorescence (max)": 1.48}
{"Chain sequence": "MLSIRPSARLKIPQHR [SeqRBM_1889]", "Chip Fluorescence (max)": 1.553}
{"Chain sequence": "KKMAPPCINIDFAPEN [SeqRBMlowT_2474]", "Chip Fluorescence (max)": 1.579}
{"Chain sequence": "KRYWKPQFKFGTQVSE [SeqRBM_7919]", "Chip Fluorescence (max)": 1.674}

* * *

Tested on: GST-tagged Cn
Assay: PEPperPRINT peptide microarray binding assay with GST-tagged Cn
Settings: GST-tagged Cn, mean over the chip spots listed under Location on chip
Mark Condition not met for Chip Fluorescence (mean) values under -0.3, and Condition met for everything at or above.

{"Chain sequence": "QASKNSNMQRSFHVNA [Seqshuffled_9426]", "Class": "Condition met"}
{"Chain sequence": "ADQELSSFQPFYIEAS [Seqshuffled_9636]", "Class": "Condition met"}
{"Chain sequence": "HVSSSPDVTLKIPQHR [SeqRBMlowT_2187]", "Class": "Condition not met"}
{"Chain sequence": "RNPGQALLTLRGHSAS [SeqRBMlowT_5835]", "Class": "Condition met"}
{"Chain sequence": "GLLNVYKKTRITYDNL [Seqrandom_1974]", "Class": "Condition met"}
{"Chain sequence": "TFWTNPQYRITVTEPD [SeqRBMlowT_7465]", "Class": "Condition not met"}
{"Chain sequence": "STSSLPTFSFSSPVPT [SeqRBMlowT_3904]", "Class": "Condition not met"}
{"Chain sequence": "GAPITPHKQGNEKAVS [SeqRBM_6919]", "Class": "Condition not met"}
{"Chain sequence": "KHATSPRINITQTSTL [SeqRBM_2048]", "Class": "Condition not met"}
{"Chain sequence": "RSYINPFVTFLDHGHR [SeqSFB3_Blumeria_graminis]", "Class": "Condition not met"}
{"Chain sequence": "PMLVFRALRIHESPLP [Seqshuffled_9670]", "Class": "Condition met"}
{"Chain sequence": "THVEKVRFLIQPAGHP [Seqshuffled_9690]", "Class": "Condition met"}
{"Chain sequence": "ATSFVPQLASTLFSLW [SeqRBM_1383]", "Class": "Condition not met"}
{"Chain sequence": "DSLYQEVLGIRSFSLS [SeqRBM_8930]", "Class": "Condition met"}
{"Chain sequence": "KAYMCPFMQFIEGGRR [SeqSFB3_Pan_troglodytes]", "Class": "Condition not met"}
{"Chain sequence": "KAYMCPFMQFQDGGRR [SeqRBMlowT_520]", "Class": "Condition met"}
{"Chain sequence": "LKDEVPEVRLNIISSL [SeqRBMlowT_4107]", "Class": "Condition met"}
{"Chain sequence": "NVPKGIRFRRTYLAIP [Seqshuffled_5577]", "Class": "Condition not met"}
{"Chain sequence": "KTGMATDMQFNPIEQH [Seqshuffled_2687]", "Class": "Condition met"}
{"Chain sequence": "KAYMCPFMQFIEGGRR [SeqRBMlowT_535]", "Class": "Condition not met"}
{"Chain sequence": "HVSSSPDVTLTPTQHR [SeqRBMlowT_4550]", "Class": "Condition not met"}
{"Chain sequence": "AFLATPSIIIHPPEGP [SeqRBM_2675]", "Class": "Condition not met"}
{"Chain sequence": "RAYINPFMQFTDDGRR [SeqRBMlowT_7881]", "Class": "Condition met"}
{"Chain sequence": "LNAIQEAQDKTDIRNK [Seqshuffled_9749]", "Class": "Condition not met"}
{"Chain sequence": "SRPLDEEGAMAPTLAN [SeqRIPOR2_Propithecus_coquereli]", "Class": "Condition met"}
{"Chain sequence": "RAYINPHMFFKFDGHK [SeqRBM_1639]", "Class": "Condition met"}
{"Chain sequence": "TFWTNPQYRITVTDED [SeqRBMlowT_7478]", "Class": "Condition not met"}
{"Chain sequence": "KPFECPSIQITSISPN [SeqNFATC3_Homo_sapiens]", "Class": "Condition not met"}
{"Chain sequence": "TGWTNPQFKLRLENDP [SeqRBM_4269]", "Class": "Condition met"}
{"Chain sequence": "RAYINPFMQFIDGGRF [SeqRBMlowT_3663]", "Class": "Condition met"}
{"Chain sequence": "RFRTELSFGFTGFGTD [Seqshuffled_9528]", "Class": "Condition not met"}
{"Chain sequence": "LSARYPEIVVSVPEHN [SeqRBM_9361]", "Class": "Condition not met"}
{"Chain sequence": "VPDIGHMALHHDQIQP [Seqrandom_9983]", "Class": "Condition not met"}
{"Chain sequence": "RNPGQALLTLRGHKAS [SeqRBMlowT_7787]", "Class": "Condition not met"}
{"Chain sequence": "TFWTNPQFRVKLEEPD [SeqRBMlowT_201]", "Class": "Condition not met"}
{"Chain sequence": "VACITWAAMLIIFSMV [Seqrandom_9980]", "Class": "Condition not met"}
{"Chain sequence": "NGPGTPSRQGQPAAPS [SeqRTS1_Penicillium_nalgiovense]", "Class": "Condition not met"}
{"Chain sequence": "NGPSTPTKQGQPMAPS [SeqRBM_8324]", "Class": "Condition not met"}
{"Chain sequence": "NGPGTPTRQGQPLAPS [SeqRBMlowT_7792]", "Class": "Condition not met"}
{"Chain sequence": "TFWTNPQYRITLEEVD [SeqRBMlowT_98]", "Class": "Condition met"}
{"Chain sequence": "TFWTNPQYRIKLTEPD [SeqRBMlowT_234]", "Class": "Condition not met"}
{"Chain sequence": "QLRDIFQGRMITILTP [Seqshuffled_3466]", "Class": "Condition not met"}
{"Chain sequence": "KEGPISSTVVMEALSI [SeqRBM_843]", "Class": "Condition met"}
